test: Plasma pharmacokinetics, cycle 1 day 1 (LC–MS/MS, non-compartmental analysis); format: in vivo, human; settings: human, plasma, oral, 40 mg, Tau 24 hr, cycle 1 day 1; read-out: AUC0-t, geometric mean
outcomeMeasure: AUC(0-t) (ng·h/mL)
Give bare numbers, in ng·h/mL.

The recorded AUC(0-t) for entry C[C@@H]1COCCN1c1cc([C@]2(O)C[C@H]3CC[C@@H](C2)O3)c2cnn(-c3cc[nH]n3)c2n1 [camonsertib] equals 13200

====

experiment: Plasma pharmacokinetics, cycle 1 day 1 (LC–MS/MS, non-compartmental analysis); assay type: in vivo, human; settings: human, plasma, oral, 10 mg, Tau 24 hr, cycle 1 day 1; read-out: AUC0-t, geometric mean
outcomeMeasure: AUC(0-t) (ng·h/mL)
Answers are plain numbers, in ng·h/mL.

The recorded AUC(0-t) for entry C[C@@H]1COCCN1c1cc([C@]2(O)C[C@H]3CC[C@@H](C2)O3)c2cnn(-c3cc[nH]n3)c2n1 equals 5700

====

assay: Plasma pharmacokinetics, cycle 1 day 1 (LC–MS/MS, non-compartmental analysis); type: in vivo, human; details: human, plasma, oral, 160 mg, Tau 24 hr, cycle 1 day 1; read-out: AUC0-12, geometric mean
outcomeMeasure: AUC(0-t) (ng·h/mL)
Answers are plain numbers, in ng·h/mL.

The recorded AUC(0-t) for entry C[C@@H]1COCCN1c1cc([C@]2(O)C[C@H]3CC[C@@H](C2)O3)c2cnn(-c3cc[nH]n3)c2n1 equals 34800

====

assay: Plasma pharmacokinetics, cycle 1 day 1 (LC–MS/MS, non-compartmental analysis); format: in vivo, human; details: human, plasma, oral, 80 mg, Tau 12 hr, cycle 1 day 1; read-out: Cmax, geometric mean
outcomeMeasure: Cmax
Answer by giving the amount and then stating its unit.

The recorded Cmax for entry C[C@@H]1COCCN1c1cc([C@]2(O)C[C@H]3CC[C@@H](C2)O3)c2cnn(-c3cc[nH]n3)c2n1 equals 3000 ng/mL

====

test: Plasma pharmacokinetics, cycle 1 day 1 (LC–MS/MS, non-compartmental analysis); type: in vivo, human; conditions: human, plasma, oral, 10 mg, Tau 24 hr, cycle 1 day 1; read-out: Tmax, median
outcomeMeasure: Tmax (h)
Numbers only, in h.

The recorded Tmax for entry C[C@@H]1COCCN1c1cc([C@]2(O)C[C@H]3CC[C@@H](C2)O3)c2cnn(-c3cc[nH]n3)c2n1 [camonsertib] equals 1

====

experiment: Plasma pharmacokinetics, cycle 1 day 1 (LC–MS/MS, non-compartmental analysis); format: in vivo, human; settings: human, plasma, oral, 100 mg, Tau 24 hr, cycle 1 day 1; read-out: Tmax, median
outcomeMeasure: Tmax (h)
Give bare numbers, in h.

The recorded Tmax for entry C[C@@H]1COCCN1c1cc([C@]2(O)C[C@H]3CC[C@@H](C2)O3)c2cnn(-c3cc[nH]n3)c2n1 equals 1.54

====

assay: Plasma pharmacokinetics, cycle 1 day 1 (LC–MS/MS, non-compartmental analysis); type: in vivo, human; conditions: human, plasma, oral, 40 mg, Tau 12 hr, cycle 1 day 1; read-out: Tmax, median
outcomeMeasure: Tmax (h)
Numbers only, in h.

The recorded Tmax for entry C[C@@H]1COCCN1c1cc([C@]2(O)C[C@H]3CC[C@@H](C2)O3)c2cnn(-c3cc[nH]n3)c2n1 equals 1.96

====

experiment: Plasma pharmacokinetics, cycle 1 day 1 (LC–MS/MS, non-compartmental analysis); type: in vivo, human; conditions: human, plasma, oral; Dose 20 mg, Tau 24 hr, cycle 1 day 1; read-out: AUC0-INF, geometric mean
outcomeMeasure: AUC(0-inf) (ng·h/mL)
One number for each entry, in ng·h/mL.

The recorded AUC(0-inf) for entry C[C@@H]1COCCN1c1cc([C@]2(O)C[C@H]3CC[C@@H](C2)O3)c2cnn(-c3cc[nH]n3)c2n1 equals 3100
